Molecular target: Cannabinoid receptor 1 (Homo sapiens)
Sequence (P21554 whole entry): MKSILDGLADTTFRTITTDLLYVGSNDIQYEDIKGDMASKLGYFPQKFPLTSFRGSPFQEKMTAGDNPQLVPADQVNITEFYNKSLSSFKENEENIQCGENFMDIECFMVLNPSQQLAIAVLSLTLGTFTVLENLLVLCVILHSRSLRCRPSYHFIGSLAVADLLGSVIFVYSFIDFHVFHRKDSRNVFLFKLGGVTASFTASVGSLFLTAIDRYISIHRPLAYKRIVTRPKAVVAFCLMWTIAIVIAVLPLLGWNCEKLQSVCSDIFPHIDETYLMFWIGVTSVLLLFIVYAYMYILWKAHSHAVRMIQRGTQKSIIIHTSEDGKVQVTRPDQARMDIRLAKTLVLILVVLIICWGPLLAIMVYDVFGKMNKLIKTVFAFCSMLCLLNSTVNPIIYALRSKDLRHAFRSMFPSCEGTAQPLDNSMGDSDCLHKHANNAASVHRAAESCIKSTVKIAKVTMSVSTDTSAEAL
Assay: Antagonist activity at human CB1 receptor expressed in CHO cells assessed as inhibition of forskolin-stimulated cAMP formation by measuring maximum inhibition preincubated with compound for 10 mins followed by forskolin induction and measured after 30 mins by HTRF analysis relative to control
Type: functional, cell-based
Settings: filed as antagonist, time 40.0 min

>  <COMPOUND>
C=C(C)[C@@H]1CCC(C)=C[C@H]1c1c(O)cc(C2(CCCC)CC2)c(C(=O)NC)c1O

>  <SCALE UNIT>
%

>  <Imax>
91.1

$$$$
>  <COMPOUND>
C=C(C)[C@@H]1CCC(C)=C[C@H]1c1c(O)cc(CCCCC)c(C(N)=O)c1O

>  <SCALE UNIT>
%

>  <Imax>
86.3

$$$$
>  <COMPOUND>
C=C(C)[C@@H]1CCC(C)=C[C@H]1c1c(O)cc(C(C)C)cc1O

>  <SCALE UNIT>
%

>  <Imax>
94

$$$$
>  <COMPOUND>
C=Cc1cc(O)c([C@@H]2C=C(C)CC[C@H]2C(=C)C)c(O)c1

>  <SCALE UNIT>
%

>  <Imax>
83.3

$$$$
>  <COMPOUND>
C=C(C)[C@@H]1CCC(C)=C[C@H]1c1c(O)cc(CCCCC)c(C(=O)N(C)C)c1O

>  <SCALE UNIT>
%

>  <Imax>
88.9

$$$$
>  <COMPOUND>
C=C(C)[C@@H]1CCC(C)=C[C@H]1c1c(O)cc(C2(CCCC)CC2)c(C(=O)N(C)C)c1O

>  <SCALE UNIT>
%

>  <Imax>
87.2

$$$$
>  <COMPOUND>
C=C(C)[C@@H]1CCC(C)=C[C@H]1c1c(O)cc(C#CC)cc1O

>  <SCALE UNIT>
%

>  <Imax>
96.7

$$$$
>  <COMPOUND>
C=C(C)[C@@H]1CCC(C)=C[C@H]1c1c(O)cc(CCCCC)cc1O [CANNABIDIOL]

>  <SCALE UNIT>
%

>  <Imax>
88.3

$$$$
>  <COMPOUND>
C=C(C)[C@@H]1CCC(C)=C[C@H]1c1c(O)cc(C2(CCCC)CC2)c(C(N)=O)c1O

>  <SCALE UNIT>
%

>  <Imax>
93.8

$$$$
>  <COMPOUND>
C=C(C)[C@@H]1CCC(C)=C[C@H]1c1c(O)cc(CCCCC)c(C(=O)NC)c1O

>  <SCALE UNIT>
%

>  <Imax>
75.3

$$$$
>  <COMPOUND>
C=C(C)[C@@H]1CCC(C)=C[C@H]1c1c(O)cc(CCCCC)c(C(=O)NC2CC2)c1O

>  <SCALE UNIT>
%

>  <Imax>
88.9

$$$$
>  <COMPOUND>
C=C(C)[C@@H]1CCC(C)=C[C@H]1c1c(O)cc(C(=O)CCCC)cc1O

>  <SCALE UNIT>
%

>  <Imax>
82.9

$$$$
>  <COMPOUND>
C=C(C)[C@@H]1CCC(C)=C[C@H]1c1c(O)cc(CCC)cc1O [CANNABIDIVARIN]

>  <SCALE UNIT>
%

>  <Imax>
94.9

$$$$
>  <COMPOUND>
C=C(C)[C@@H]1CCC(C)=C[C@H]1c1c(O)cc(C2CC2)cc1O

>  <SCALE UNIT>
%

>  <Imax>
94

$$$$
>  <COMPOUND>
C=C(C)[C@@H]1CCC(C)=C[C@H]1c1ccc(C2CC2)c(C(N)=O)c1O

>  <SCALE UNIT>
%

>  <Imax>
108

$$$$
>  <COMPOUND>
C=C(C)[C@@H]1CCC(C)=C[C@H]1c1c(O)cc(C)cc1O

>  <SCALE UNIT>
%

>  <Imax>
115

$$$$
>  <COMPOUND>
C=C(C)[C@@H]1CCC(C)=C[C@H]1c1c(O)cc(-c2ccccn2)cc1O

>  <SCALE UNIT>
%

>  <Imax>
92.1

$$$$
>  <COMPOUND>
C=C(C)[C@@H]1CCC(C)=C[C@H]1c1c(O)cc(C(C)(C)CCCC)c(C(=O)NC)c1O

>  <SCALE UNIT>
%

>  <Imax>
104

$$$$
